These data points were gathered from patent US20090226437A1.

- system-under-test: T1, alphaEbeta7 on alphaEbeta7-transfected 293 cells (human, UniProt P38570 19-1179; P26010 20-798)
- T1 construct: whole, on cells; also called alphaEbeta7 293 cells
- T1 sequence (P38570 19-1179, chain 1 of 2): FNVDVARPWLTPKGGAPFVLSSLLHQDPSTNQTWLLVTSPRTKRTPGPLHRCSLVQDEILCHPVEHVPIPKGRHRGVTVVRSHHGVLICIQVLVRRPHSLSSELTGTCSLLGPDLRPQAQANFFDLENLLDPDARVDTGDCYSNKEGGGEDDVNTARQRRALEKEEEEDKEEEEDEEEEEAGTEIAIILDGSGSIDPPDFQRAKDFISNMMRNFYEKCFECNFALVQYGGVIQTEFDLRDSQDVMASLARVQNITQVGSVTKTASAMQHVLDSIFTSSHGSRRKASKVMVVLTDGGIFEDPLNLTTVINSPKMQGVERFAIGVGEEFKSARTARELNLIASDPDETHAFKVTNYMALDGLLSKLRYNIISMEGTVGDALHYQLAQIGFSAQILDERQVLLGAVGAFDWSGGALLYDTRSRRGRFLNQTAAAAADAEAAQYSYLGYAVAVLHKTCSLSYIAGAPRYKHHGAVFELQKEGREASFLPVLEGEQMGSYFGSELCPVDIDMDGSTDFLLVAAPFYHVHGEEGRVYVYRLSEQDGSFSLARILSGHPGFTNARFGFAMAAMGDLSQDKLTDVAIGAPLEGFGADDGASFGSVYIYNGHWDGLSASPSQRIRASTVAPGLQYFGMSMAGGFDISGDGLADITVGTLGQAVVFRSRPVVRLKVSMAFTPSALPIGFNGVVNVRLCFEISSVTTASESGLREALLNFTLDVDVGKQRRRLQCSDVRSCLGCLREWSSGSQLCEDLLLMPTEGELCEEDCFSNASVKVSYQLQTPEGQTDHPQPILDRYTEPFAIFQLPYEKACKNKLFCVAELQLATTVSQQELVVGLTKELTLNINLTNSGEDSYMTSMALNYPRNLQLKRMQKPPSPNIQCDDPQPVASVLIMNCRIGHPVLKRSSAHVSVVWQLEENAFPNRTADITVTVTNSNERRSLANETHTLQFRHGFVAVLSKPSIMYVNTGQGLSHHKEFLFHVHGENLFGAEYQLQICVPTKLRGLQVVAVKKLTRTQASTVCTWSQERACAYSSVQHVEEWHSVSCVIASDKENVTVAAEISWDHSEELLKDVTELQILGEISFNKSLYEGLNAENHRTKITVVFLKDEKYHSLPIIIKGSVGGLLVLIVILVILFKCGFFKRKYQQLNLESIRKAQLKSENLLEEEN
- T1 sequence (P26010 20-798, chain 2 of 2): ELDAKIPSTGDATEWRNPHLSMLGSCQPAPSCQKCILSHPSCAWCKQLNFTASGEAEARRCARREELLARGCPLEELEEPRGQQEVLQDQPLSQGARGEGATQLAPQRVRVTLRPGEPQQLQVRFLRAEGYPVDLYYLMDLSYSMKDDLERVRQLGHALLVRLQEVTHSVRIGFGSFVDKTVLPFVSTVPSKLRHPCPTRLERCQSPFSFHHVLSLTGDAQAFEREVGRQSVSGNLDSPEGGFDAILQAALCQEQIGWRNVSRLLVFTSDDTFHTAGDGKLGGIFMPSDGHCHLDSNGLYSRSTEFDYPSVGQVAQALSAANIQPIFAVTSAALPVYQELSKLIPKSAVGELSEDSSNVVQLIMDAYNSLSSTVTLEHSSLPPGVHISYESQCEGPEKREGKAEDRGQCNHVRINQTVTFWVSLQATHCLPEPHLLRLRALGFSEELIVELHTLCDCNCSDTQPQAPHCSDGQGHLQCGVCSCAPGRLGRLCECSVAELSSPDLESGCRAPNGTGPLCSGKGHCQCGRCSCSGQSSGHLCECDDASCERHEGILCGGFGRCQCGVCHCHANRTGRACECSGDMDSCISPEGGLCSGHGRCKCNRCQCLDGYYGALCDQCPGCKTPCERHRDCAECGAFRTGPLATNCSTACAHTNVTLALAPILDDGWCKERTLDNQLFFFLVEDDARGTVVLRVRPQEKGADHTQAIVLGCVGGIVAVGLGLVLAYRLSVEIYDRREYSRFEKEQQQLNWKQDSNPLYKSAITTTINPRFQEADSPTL
- assay-explanation: cell adhesion inhibition, alphaEbeta7 293 cells on coated huE-Cadherin, experiment 3 of 3
Provide the recorded IC90 for the entries that follow.
Answers are plain numbers, in nM.

INSERT INTO results (binder, number) VALUES
  ('Variant hu504.32, IgG (antibody, V domains shown, methionine at heavy chain position 94; also called hu504.32M; 504.32M) VH: EVQLVESGGGLVQPGGSLRLSCAASGFFITNNYWGWVRQAPGKGLEWVGYISYSGSTSYNPSLKSRFTISRDTSKNTFYLQMNSLRAEDTAVYYCAMTGSSGYFDFWGQGTLVTVSS VL: DIQMTQSPSSLSASVGDRVTITCRASESVDDLLHWYQQKPGKAPKLLIKYASQSISGVPSRFSGSGSGTDFTLTISSLQPEDFATYYCQQGNSLPNTFGQGTKVEIKR', 11.7),
  ('Rat Fib504 (antibody FIB504.64 produced by hybridoma ATCC HB-293) (antibody, V domains shown, Whole rat antibody in the cell adhesion assays; also called rat anti-mouse beta7 antibody) VH: EVQLQESGPGLVKPSQSLSLTCSVTGFFITNNYWGWIRKFPGNKMEWMGYISYSGSTSYNPSLKSRISITRDTSKNQFFLQLNSVTTEDTATYYCAMTGSSGYFDFWGPGTMVTVSS VL: DVVMTQSPATLSVTPGERISLSCRASESVDTYLHWYQQKPNESPRLLIKYASQSISGIPSRFSGSGSGTDFTLSINGVELEDLSIYYCQQGNSLPNTFGAGTKLELKR', 9.95),
  ('Variant hu504.5, IgG (antibody, name in Kabat numbering, V domains shown) VH: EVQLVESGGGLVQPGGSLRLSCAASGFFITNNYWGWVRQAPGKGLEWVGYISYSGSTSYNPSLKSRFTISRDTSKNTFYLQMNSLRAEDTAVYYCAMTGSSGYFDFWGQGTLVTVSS VL: DIQMTQSPSSLSASVGDRVTITCRASESVDSLLHWYQQKPGKAPKLLIKYASQSISGVPSRFSGSGSGTDFTLTISSLQPEDFATYYCQQGNSLPNTFGQGTKVEIKR', 10.2);

Supply reported IC90 belonging to this binder: Variant hu504.16, IgG (antibody, name in Kabat numbering, V domains shown) VH: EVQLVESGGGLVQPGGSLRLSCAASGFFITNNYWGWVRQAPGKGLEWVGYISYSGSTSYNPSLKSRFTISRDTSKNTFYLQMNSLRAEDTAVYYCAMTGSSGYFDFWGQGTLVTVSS VL: DIQMTQSPSSLSASVGDRVTITCRASESVDTLLHWYQQKPGKAPKLLIKYASQSISGVPSRFSGSGSGTDFTLTISSLQPEDFATYYCQQGNSLPNTFGQGTKVEIKR
13.5
